Field: TGI. Provide a value for each of the compounds that follow.
- Test system: RXF 393 renal
- ASSAY_PROCEDURE: NCI tumour cell line growth inhibition, 48 h

Input: # query: TGI of entry `c1coc(CNc2ncnc3[nH]ncc23)c1`
Output: > 100 µM

Input: How about [N-]=[N+]=NC(CCl)c1cn([C@H]2C[C@H](O)[C@@H](CO)O2)c(=O)[nH]c1=O (stereo partly drawn) ?
Output: > 100 µM

Input: How about `CN(CCNC(=O)c1nn(-c2ccccc2)c2c1Cc1ccccc1-2)CCNC(=O)c1nn(-c2ccccc2)c2c1Cc1ccccc1-2` ?
Output: 3.07 µM

Input: How about O=C(O)C1=C(O)C(C(=O)O)C23CCCCCCCCCCC12C(C(=O)O)C(O)=C3C(=O)O (stereo not drawn) ?
Output: > 100 µM

Input: How about `COc1c2cc(C(C)(C)C)cc1Cc1cccc(c1OCc1cccc([N+](=O)[O-])c1)Cc1cc(C(C)(C)C)cc(c1OC)Cc1cccc(c1OCc1cccc([N+](=O)[O-])c1)Cc1cc(C(C)(C)C)cc(c1OC)Cc1cccc(c1OCc1cccc([N+](=O)[O-])c1)C2` ?
Output: > 50 µM

Input: How about CS(=O)(=O)OC1CCC2(C#N)CCC1C2=O (stereo not drawn) ?
Output: > 100 µM

Input: How about `C=C(C)[C@@H]1CC[C@]2(C)CC[C@]3(C)[C@H](CC[C@@H]4[C@@]5(C)CC[C@H](O)C(C)(C)[C@@H]5CC[C@]43C)[C@@H]12` ?
Output: 28.7 µM

Input: How about `Cc1cc2c(cc1C)OC(=O)CC2` ?
Output: > 100 µM

* * *

- System: LOX IMVI melanoma
- ASSAY_PROCEDURE: NCI tumour cell line growth inhibition, 48 h
ATTRIBUTE_MEASURED: GI50

Input: Under LOX IMVI melanoma: GI50 value of `CCOC(=O)c1c(C)nc2c(c1N)CC(=O)N2Cc1ccc(OC)cc1` ?
Output: > 100 µM

Input: How about `CCN(Cc1ccc(Cl)cc1)c1ccc(CO)c(Cl)c1` ?
Output: 3.36 µM

Input: How about `O=C1C(Cl)=C(Nc2cccc(Cl)c2)C(=O)N1Cc1ccc(Cl)cc1` ?
Output: 0.408 µM

* * *

- Test system: MDA-MB-231 breast
- ASSAY_PROCEDURE: NCI tumour cell line growth inhibition, 48 h
Where a SMILES comes first, the peptide text is derived from it. [ ]: non-standard residue; d: D form. pGlu = O=C1CC[CH](C(=O)O)N1
ATTRIBUTE_MEASURED: TGI

Input: # query: TGI of entry `CCN(C(=O)N[C@@H](Cc1ccccc1)C(=O)N[C@@H](CC(C)C)C(=O)OC)c1ccccc1`
Output: > 100 µM

Input: How about `Fc1ccc(C(OCCN2CCN(CCCCl)CC2)c2ccc(F)cc2)cc1` ?
Output: 75.5 µM

Input: How about `CCOC(=O)c1c(C)nc2c(c1N)CC(=O)N2Cc1ccc(OC)cc1` ?
Output: > 100 µM

Input: How about COc1cc(C(O)CCBr)c(OC)cc1C (configuration not stated) ?
Output: > 72.7 µM

Input: How about `CCN(Cc1cc(Nc2nc(C)cn3c(-c4cn[nH]c4)cnc23)sn1)C(C)(C)CO` ?
Output: 4.35 µM

Input: How about `O=C1N=C(SC(SC2=NC(=O)C3(NN2)c2ccccc2-c2ccccc23)=C(SC2=NC(=O)C3(NN2)c2ccccc2-c2ccccc23)SC2=NC(=O)C3(NN2)c2ccccc2-c2ccccc23)NNC12c1ccccc1-c1ccccc12` ?
Output: > 10 µM

Input: How about `O=C1/C(=c2\s/c(=C\c3ccccc3)c(=O)n2-c2ccccc2)SC(=S)N1c1ccccc1` ?
Output: 57.1 µM

Input: How about `CNC(=O)Nc1nc2ccc([N+](=O)[O-])cc2[nH]1` ?
Output: > 100 µM

Input: How about `Fc1ccc(Oc2nc3ccc(C(F)(F)F)cc3nc2-c2ccccc2)cc1` ?
Output: > 100 µM

Input: How about `C/C(=C(/C)c1ccc(O)cc1)c1ccc(O)cc1` ?
Output: > 100 µM

Input: How about CCNC(=O)C1CCCN1C(=O)C(CCCN=C(N)N)NC(=O)C(CC(C)C)NC(=O)C(CC(C)C)NC(=O)C(Cc1ccc(O)cc1)NC(=O)C(CO)NC(=O)C(Cc1c[nH]c2ccccc12)NC(=O)C(Cc1cnc[nH]1)NC(=O)C1CCC(=O)N1 (configuration not stated) ([pGlu]HWSYLLRP-NHEt; configuration not given here) ?
Output: > 100 µM

Input: How about C=C[C@@]1(C)CC[C@@H]2[C@@]3(C1)O[C@H]3CC1[C@](C)(C(=O)OC)CCC[C@@]12C (some centres not stated) ?
Output: 58.1 µM

Input: How about `O=C(Nc1ccc([As](=O)(O)O)cc1)Nc1cccc(Cl)c1Cl` ?
Output: > 100 µM

Input: How about `CN(C)c1ccc(/C=C/C(=O)CC(=O)/C=C/c2ccc(N(C)C)cc2)cc1` ?
Output: > 100 µM

Input: How about C=C(C)C(O)CCC1(C)C=Cc2c(c(C)cc3c2[nH]c2ccccc23)O1 (configuration not stated) ?
Output: 11.4 µM

Input: How about `O=c1[nH]nc(-c2ccccc2)n1Nc1ccccc1` ?
Output: > 100 µM

Input: How about `COc1ccc2nc3cc(Cl)ccc3c(NCCNC(=O)Cn3c(=O)n(C)c(=O)c4c3nc3c(c(=O)n(C)c(=O)n3C)[n+]4[O-])c2c1` ?
Output: > 100 µM

* * *

Field: TGI. Provide a value for each of the compounds that follow.
- Tested on: EKVX NSCLC
- ASSAY_PROCEDURE: NCI tumour cell line growth inhibition, 48 h

Input: Under EKVX NSCLC: TGI value of `CCN(Cc1cc(Nc2nc(C)cn3c(-c4cn[nH]c4)cnc23)sn1)C(C)(C)CO` ?
Output: 15.2 µM

Input: How about `N#CC1(C#N)C2(c3ccccc3)OC(c3ccccc3)(c3cc4ccccc4cc32)C1(C#N)C#N` ?
Output: 32.1 µM

Input: How about `N#CN=[N+]([O-])c1ccc(C(=O)O)cc1` ?
Output: 35.8 µM

Input: How about `CN(CCO)CC[C@H](CSc1ccccc1)Nc1ccc(S(=O)(=O)NC(=O)c2ccc(N3CCC([C@@H](O)c4ccccc4-c4ccc(Cl)cc4)CC3)cc2)cc1S(=O)(=O)C(F)(F)F` ?
Output: > 100 µM

Input: How about `S=c1nc(N2CCCCC2)c2cn[nH]c2[nH]1` ?
Output: > 100 µM

Input: How about `CCOC(=O)/C(C=Nc1ccc(-c2nc3ccccc3[nH]2)cc1)=C(/C)O` ?
Output: 38.9 µM

Input: How about CC(=O)OCCCC(NC(=O)OC(C)(C)C)C(=O)NC(CCCOC(C)=O)C(=O)NC(Cc1ccc([N+](=O)[O-])cc1)C(=O)NCC(=O)OCc1ccccc1 (centres undefined) ?
Output: 33.3 µM

Input: How about `CCCc1cc(=O)oc2c3c(c4c(c12)OC(C)(C)CC4)O[C@@H](C)[C@H](C)[C@H]3O` ?
Output: 29.4 µM

Input: How about `COc1cc(C2=C(c3cc(OC)c4ccccc4c3OC)C(=O)c3ccccc3C2=O)c(OC)c2ccccc12` ?
Output: > 100 µM

Input: How about `C[C@H](NC(=O)[C@@H](C)N)[C@H](Oc1ccc2c(cnn2-c2ccc(F)cc2)c1)c1ccc2c(c1)OCCO2` ?
Output: 12.1 µM

Input: How about `Cn1c(=O)c2c(nc3n(CCCCl)c(=O)ccn23)n(C)c1=O` ?
Output: > 100 µM

Input: How about CC(Cc1ccccc1)Nc1ncnc2c1ncn2C1OC(CO)CC1O (centres undefined) ?
Output: > 100 µM

Input: How about `O=C1/C(=c2\s/c(=C\c3ccccc3)c(=O)n2-c2ccccc2)SC(=S)N1c1ccccc1` ?
Output: > 100 µM

Input: How about `COc1ccc(/C=C2\NC(=S)N(/C=C3\C(=O)Oc4ccccc4C3=O)C2=O)cc1OC` ?
Output: > 100 µM

Input: How about `COc1cc(C=O)cc(/C=N/n2c3ccccc3c3ccccc32)c1O` ?
Output: > 100 µM

Input: How about C[C@@]1(C(=O)O)CCC[C@]2(C)C1CC[C@@]13CC(=O)[C@@](CO)(CC[C@]12O)C3 (some centres undefined) ?
Output: > 100 µM

Input: How about `NC(=O)Nc1ccc(S(=O)(=O)Nc2ccc(S(N)(=O)=O)cc2)cc1` ?
Output: > 100 µM

Input: How about `O=C1CSC(=S)N1` ?
Output: > 100 µM

Input: How about `CC(=O)c1ccc2c(c1)c1c(C)c3c[n+](C)ccc3c(C)c1n2C` ?
Output: > 100 µM

Input: How about `C=C1C(=O)O[C@H]2[C@H]1CC/C(COC(=O)CSCSCC(=O)OC/C1=C/CC[C@@]3(C)O[C@H]3[C@H]3OC(=O)C(=C)[C@@H]3CC1)=C\CC[C@@]1(C)O[C@@H]21` ?
Output: 3.38 µM

Input: How about CC(=O)OCC1=C(C(=O)O)N2C(=O)C(NC(=O)CSc3ccncc3)C2SC1 (centres undefined) ?
Output: > 100 µM

Input: How about `O=C(c1ccccc1)n1c(Cc2ccccc2)nc2cc(C34CC5CC(CC(C5)C3)C4)ccc21` ?
Output: > 100 µM

Input: How about `Cc1c(C)c(C)c(-n2c(=O)n(C)c(=O)n2-n2c(=O)n(C)c(=O)n2-c2c(C)c(C)c(C)c(C)c2C)c(C)c1C` ?
Output: > 100 µM

Input: How about `Cc1ccc(C2=Nn3c(nc4sc(C)c(C)c4c3=O)SC2)cc1` ?
Output: > 100 µM

Input: How about CC12O[C@]3([C@H](C(=O)N4CCOC43C)[C@H]1Cl)[C@H]1O[C@H]12 (some centres undefined) ?
Output: > 100 µM

Input: How about `COc1ccc2[nH]cc(-c3ccc(-c4c[nH]c5ccc(OC)cc45)s3)c2c1` ?
Output: 26.9 µM

Input: How about `O=[N+]([O-])c1ccc(C[P+](c2ccccc2)(c2ccccc2)c2ccccc2)cc1` ?
Output: > 100 µM

Input: How about `C/C(N=NS(=O)(=O)c1ccccc1)=C1\C=CC=CN1O` ?
Output: > 100 µM

Input: How about COC(=O)C(Cc1ccccc1)NP(=O)(O)OCC1OC(n2cc(Br)c(=O)[nH]c2=O)CC1O (centres undefined) ?
Output: > 100 µM

Input: How about `C/C(=N\NC(=S)N1CC2CCC(CC2)C1)c1nccs1` ?
Output: 11.9 µM

Input: How about `Cc1ccc(NCC(=O)N2CC(=O)Nc3ccccc32)c(C)c1` ?
Output: > 100 µM

Input: How about CN1CCc2c3n(c4cc(Br)ccc24)[C@H](O)CCCC31 (some centres undefined) ?
Output: > 10 µM

Input: How about `Cc1c2ccncc2c(C)c2c1[nH]c1ccc(OC(C)C)cc12` ?
Output: 2.81 µM

Input: How about `CCCCCCCCNc1cc2c3c(c1)CCCN3CCC2` ?
Output: 15.3 µM

Input: How about `COc1ccc(CCCCl)c(C2=NCCc3cc(OC)c(OC)cc32)c1` ?
Output: > 100 µM

Input: How about CS(=O)(=O)OC1CCC2(C#N)CCC1C2=O (centres undefined) ?
Output: > 100 µM

Input: How about `CNC(=O)Nc1nc2ccc([N+](=O)[O-])cc2[nH]1` ?
Output: > 100 µM

Input: How about `COc1ccc([C@H]2CC(=O)C[C@H](c3ccc(OC)cc3)C23C(=O)c2ccccc2C3=O)cc1` ?
Output: > 100 µM

Input: How about `Cc1ccc2nc3c(=O)[nH]c(=O)nc-3n(C)c2c1C` ?
Output: > 100 µM
